Origin of measurements: the supplement of paper PMC10567573

# method_description: protein stability index of a GFP-peptide fusion (GPS, HEK-293T) (PSI 1-6); higher = more stable;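 further: 24-mer peptide tiles fused after GFP, lentivirally expressed, FACS-sorted into six equal bins by GFP/DsRed ratio, decoded by Illumina sequencing, PSI is the read-weighted mean bin number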
# condition_parameters: treatment: MLN4924 1 uM, 8 h; c terminus: a fixed tail appended
As shown below, each of these sequences has a reported protein stability index value.
value_kind: protein stability index

DISPPIFRRGEKLRVISDEGGWWK [SLA]    2.87
HPKPKLVRVLESLLVSLVTTVVVF [CLCN6]    3.56
TRTAEPAESSVPPVTSIGIDNLGL [SLC35F2]    4.49
VCTISSTGPLQPQPKKPEDEPQET [PKD2L1]    5.48
GPGSKRDAHFCAVCSDYASGYHYG [ESR2]    2.65
GCSAVSEPASESVVGALPAEHQFS [TRAF3IP2]    4.6
SMEVFTHYDLLNLNGTKVAEGHKA [LOXL2]    3.85
RWLDESDAEMELRAKEEERLNKLR [HACD3]    4.84
CLGLSYDGLLGDNQIMPKAGLLII [MAGEA3]    2.73
YEAGQVTLHNAQTQEPIFTFTASF [TRIM15]    2.11
GLPGSFIKEVQKGGPADLAGLEDE [PDZK1]    5.37
RSRSLDIQPSSEGLGPTSEPFPSS [SPAG8]    5.52
AVVRLNKKIYEAKRFTDAGFEHYD [CDC14A]    2.52
SSGHQNRRFSSEDLEDPLGGLLSY [FBF1]    3.89
ESRALSTSSNLGSQYQCENGVSGP [TBX5]    5.06
SDHCITSSDMMDSSSFSNLDLSEE [VDR]    5.42
RMQALLIRERILGPSHPDTSYYIR [FEM1C]    2.18
RGCLHSHGLQEGKDLFTQRQNSAP [CDC25A]    3.62
MEAGERIDASQLPHRVLETRGHAI [SMIM2]    4.02
VQRLQAYTATEQEMQQQMSLGELC [TRIM14]    3.9
HPMYRRLVHSAVDVPTIQEKVNEG [ZMYND11]    4.3
SEKTDESDTIPYLKKFLYNFDNPW [MIA2]    2.11
LGYLLLGAATNVFLFVLARVPAGI [MFSD9]    2.94
DELVGLPFSSHTYSQASELPTDAV [FBXO34]    4.81
KKSGEKEQHISKCKKAFREGSRKS [KMT2E]    4.61
QDVTVVGSAGRLLAVGTDLYGQRN [GFOD1]    3.63
ERDRISTRRSSYEDSSLPSINALL [HNF4A]    3.84
SDSMTDVPVDTGVAARTPAVEGLT [TPD52L2]    5.26
DNPSVLSGPMQAALQAAAHASVDI [SMG5]    4.29
YIESSTKVYDDMAFRYLSWILFPL [CLPTM1]    2.61
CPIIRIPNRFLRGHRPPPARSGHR [KLHDC10]    3.32
GKKYNTMLGYKRHLALHAASSGDL [PLAGL1]    3.28
DILWEHLEQMIKENQEKTEDQYEE [ETS2]    5.22
TKLEAEIVTLRHVLAAKERRCGEL [TPD52L3]    2.78
DVALVLTVLLEEETLEASVGPRET [TOR1AIP2]    2.27
GSGQRVPALEEAPDSHQKRPQHSH [ELOA2]    5.29
MATESVDHELGRCTDSVVKYELMR [EHMT1]    3.69
RLVQLLVRAHQDTQRRTSMGGTQQ [CTNNB1]    2.54
ENKDHSLERGRASLIFSLKNEVGG [TPH1]    3.82
QFGQDGPISVHCSAGVGRTGVFIT [PTPRD]    2.15
SYSSCGDFHYCDREHVCRKDQRNP [RBMY1A1]    4.09
CCVKTELLGEETPMAADEGSAEKQ [EHMT1]    5.47
EPYARLPPHKHVARPTEVLAGTQL [TRIB3]    3.88
RLRQLKVRNDSCVVHEDFREDILS [PKD2L1]    3.65
IQEAQSAWKDDFALNSMLRRRFRE [YJU2B]    3.69
YDPNYMSPFAQFACDNGLNVRGGK [PPTC7]    4.11
VLYTDKTYAMGHLIQRKKVHVFGD [TNFSF13B]    2.51
EAVLHCHQMGVVHRDLKPENLLLA [CAMK2A]    2.58
DYLDLDKMSLYSEADSGYGSYGGF [TRIM9]    2.77
TDNGTFNLSRGQTPLTEGSEDLDG [RETREG3]    5.45
LLYWGIAEDHLDGCCKRRYLQKIE [KCNG1]    2.3
RYAVVLNATWLVNSAAHLFGYRPY [SCD]    3.05
IKLREYEAALNSKDAALATALGDK [LMNB1]    4.38
